Cited source for all entries: the RepoRT retention time repository (doi:10.1021/acs.analchem.2c02893)

ASSAY_EXPLANATION: RP, Thermo Scientific Acclaim RSLC 120 C18, 100 × 2.1 mm, 2.2 µm, 30 °C, 0.2 mL/min, estimated dead time 1.1 min; A: 90% water + 10% methanol + 0.01% formic acid + 5 mM ammonium formate, pH 3.61; B: methanol + 0.01% formic acid + 5 mM ammonium formate, pH 3.61; gradient (min/%B) 0/1 1/1 2/39 13/99.9 15/99.9 15.1/1 20.1/1
CONDITION_INFO: stereoisomer not certain
Tick MET if LC retention time is 6 min or greater. Tick NOT MET if LC retention time is less than 6 min.

Evaluate `Clc1ccc2nsnc2c1NC1=NCCN1` : LC retention time at minimum 6 min?
NOT MET

Evaluate CNCC1CCCCC1(O)c1cccc(OC)c1 (configuration not stated) : LC retention time at minimum 6 min?
NOT MET

Evaluate `CC(=O)CCCCn1c(=O)c2c(ncn2C)n(C)c1=O` : LC retention time at minimum 6 min?
NOT MET

Evaluate CC12CCC(=O)C=C1C(O)CC1C2C(O)CC2(C)C1CCC2(O)C(=O)CO (stereo not drawn) [6-beta-Hydroxycortisol] : LC retention time at minimum 6 min?
NOT MET

Evaluate `CCN(CC)CCN1C(=O)CN=C(c2ccccc2F)c2cc(Cl)ccc21` : LC retention time at minimum 6 min?
MET

Evaluate c1ccc(C2CN3CCSC3=N2)cc1 (configuration not stated) : LC retention time at minimum 6 min?
NOT MET

Evaluate CCCCCCCCSC(=O)Oc1cc(Cl)nnc1-c1ccccc1 [Pyridate] : LC retention time at minimum 6 min?
MET

Evaluate `O=C(NC(=O)c1c(F)cccc1F)Nc1ccc(C(F)(F)F)cc1` : LC retention time at minimum 6 min?
MET

Evaluate CCC1OC(=O)C(C)C(=O)C(C)C(OC2OC(C)CC(N(C)C)C2O)C(C)(OC)CC(C)C(=O)C(C)C2N(CCCCn3cnc(-c4cccnc4)c3)C(=O)OC12C (configuration not stated) : LC retention time at minimum 6 min?
MET

Evaluate `CCS(=O)(=O)CCSP(=O)(OC)OC` : LC retention time at minimum 6 min?
NOT MET

Evaluate CC(N)Cc1ccc(O)cc1 (configuration not stated) [Amphetamine-P-hydroxy] : LC retention time at minimum 6 min?
NOT MET

Evaluate COC(=O)C1Cc2c([nH]c3ccccc23)C(c2ccc3c(c2)OCO3)N1C(=O)CCl (configuration not stated) : LC retention time at minimum 6 min?
MET

Evaluate COCC(C)N(C(=O)CS(=O)(=O)O)c1c(C)csc1C (configuration not stated) [Dimethenamide-ESA] : LC retention time at minimum 6 min?
MET

Evaluate Cc1ccccc1CC(C)N (configuration not stated) : LC retention time at minimum 6 min?
NOT MET

Evaluate CCCc1nn(C)c2c(=O)[nH]c(-c3cc(C(=O)CN4CC(C)NC(C)C4)ccc3OCC)nc12 (configuration not stated) : LC retention time at minimum 6 min?
MET

Evaluate `O=C(O)c1ccccc1C(=O)Nc1cccc2ccccc12` : LC retention time at minimum 6 min?
MET
